- System: S. aureus ATCC6538
- PROTOCOL: Further MIC tests, performed as in Example 1
- Format: cell-based
- CONDITION NOTES: Staphylococcus aureus, duplo (duplicate determination), read-out: MIC-value S. aureus ATCC6538 duplo
What MIC was measured for each of the following?
Give bare numbers, in µg/mL.

Field: example entries. Status: answers known.
CC(C)COC(=O)NCC(C)OC(=O)Nc1ccc(C(F)(F)F)cc1 (stereo not drawn); 25
CC(C)COC(=O)NCC(C)OC(=O)Nc1ccc(Cl)c(Cl)c1 (stereo not drawn); 6.25
NC(=O)OCCOC(=O)Nc1ccc(Cl)c(Cl)c1; 50

// input: 3 compounds below; output: MIC for each
1. CNC(=O)OCCOC(=O)Nc1ccc(Cl)c(Cl)c1
2. CCNC(=O)OCCOC(=O)Nc1ccc(Cl)c(Cl)c1
3. Cc1ccc(NC(=O)OC(C)CNC(=O)OCC(C)C)cc1 (stereo not drawn)

Solution:
1: 50; 2: 100; 3: 50

====

- Test system: S. aureus ATCC6538
- PROTOCOL: Further MIC tests, performed as in Example 1
- Assay type: cell-based
- CONDITION NOTES: Staphylococcus aureus, first determination, read-out: MIC-value S. aureus ATCC6538
What MIC was measured for each of the following?
Answer as a quantity: numeral, then unit.

CCNC(=O)OCCOC(=O)Nc1ccc(Cl)c(Cl)c1; 100 µg/mL

// input: 2 compounds below; output: MIC for each
1. Cc1ccc(NC(=O)OC(C)CNC(=O)OCC(C)C)cc1 (stereo not drawn)
2. NC(=O)OCCOC(=O)Nc1ccc(Cl)c(Cl)c1

Solution:
1. 100 µg/mL
2. 100 µg/mL

====

- System: S. aureus ATCC6538
- PROTOCOL: Further MIC tests, performed as in Example 1
- Assay type: cell-based
- CONDITION NOTES: Staphylococcus aureus, first determination, read-out: MIC-value S. aureus ATCC6538
OBSERVABLE: MIC (µg/mL)
Give bare numbers, in µg/mL.

CC(C)COC(=O)NCC(C)OC(=O)Nc1ccc(C(F)(F)F)cc1 (stereo not drawn) [TAC 1_007]; 12.5
CC(C)COC(=O)NCC(C)OC(=O)Nc1ccc(Cl)c(Cl)c1 (stereo not drawn) [BAS 00674552]; 25

Let us examine a further case.
Value of MIC reported for the compound CNC(=O)OCCOC(=O)Nc1ccc(Cl)c(Cl)c1 [TAC 1_010] is 100
